test: chemical genetic growth profiling, strain panel (AID 1159580);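 note: tested at 20 µM; growth read once vehicle control cultures reached saturation at 30 °C; 1 = growth at the plate median or of vehicle wells; lower values mean less growth of the strain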; settings: S. cerevisiae deletion strains, growth OD, locus YCL029C, strain bik1, hits give low values
About 2,000 (36%) of roughly 5,500 compounds were called active. Another 18% or so got no clear call; they are omitted. This is one part of the list.
Result type: normalized growth

> print(dat)
                                   compound        result.type  result.value
1  CO[C@@H]1[C@@H](OC(N)=O)[C@@H](O)[C@H](Oc2ccc3c(O)c(NC(=O)c4ccc(O)c(CC=C(C)C)c4)c(=O)oc3c2C)OC1(C)C  normalized growth         0.995
2  CC1(C)S[C@@H]2C(N3C(=O)[C@@H](c4ccccc4)NC3(C)C)C(=O)N2[C@H]1C(=O)O (some centres undefined)  normalized growth          1.02
3     COc1cc(O)c2c(=O)cc(-c3ccc(O)cc3)oc2c1  normalized growth             1
4  Oc1ccc2c3c1OC1[C@@H](O)CC[C@@]4(O)[C@@H](C2)N(CC2CCC2)CC[C@]314 (some centres undefined)  normalized growth          1.03

----------
Examples of compounds with documented normalized growth follow.
assay: chemical genetic growth profiling, strain panel (AID 1159580);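 note: tested at 20 µM; growth read once vehicle control cultures reached saturation at 30 °C; 1 = growth at the plate median or of vehicle wells; lower values mean less growth of the strain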; settings: S. cerevisiae deletion strains, growth OD, locus YIR030C, strain dcg1, hits give low values
About 2,000 (36%) of roughly 5,500 compounds were called active. Another 18% or so got no clear call; they are omitted. This is one part of the list.
Result type: normalized growth

Compound	Result type	Result value
CC[C@@]1(O)C(=O)OCc2c1cc1n(c2=O)Cc2cc3ccccc3nc2-1	normalized growth	0.826 (active)
Cc1c(OCC(F)(F)F)ccnc1CS(=O)c1nc2ccccc2[nH]1 (stereo not given)	normalized growth	0.995 (inactive)
C[C@@H]1CCC2[C@](C)(CO)[C@@H](O)CC[C@]2(C)[C@@]12CC[C@@](CO)(CCO)O2 (stereo not given in full)	normalized growth	0.991 (inactive)
COC1C(O)C(O[C@H]2CC[C@]3(C=O)C4C(CC[C@]3(O)C2)[C@@]2(O)CC[C@H](C3=CC(=O)OC3)[C@@]2(C)C[C@H]4OC(C)=O)OC(C)C1OC(C)=O (stereo not given in full)	normalized growth	1.01 (inactive)
COc1nc(NC(C)C)nc(NC(C)C)n1	normalized growth	1.01 (inactive)

----------
assay: chemical genetic growth profiling, strain panel (AID 1159580);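 note: tested at 20 µM; growth read once vehicle control cultures reached saturation at 30 °C; 1 = growth at the plate median or of vehicle wells; lower values mean less growth of the strain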; details: S. cerevisiae deletion strains, growth OD, locus YDL101C, strain DUN1
Screen size: about 5,500 compounds; about 2,000 (36%) were called active. About 18% were inconclusive and are not listed. Cut-off read from the data, not from the text of the source: active = normalized growth mostly below about 0.91 (no sharp cut-off); inconclusive = no clear call, values can overlap the other calls; inactive = mostly above about 0.92. The list shows a part of the results.
Possible outcomes: active, inactive

Compound	Class assignment
CC(=O)O[C@@H]1CC2C(C)(C)CCC[C@]2(C)C2CC[C@]3(C)C(=CC(=O)O[C@H]3c3ccoc3)[C@@]21C (some centres not stated)	inactive
COc1ccc(N=C2SCC(c3ccc(C)cc3)=NN2CCO)cc1	inactive
CC1=C2C(O)C(=O)OC3CC4C(C)(C)C(=O)C=C[C@]4(C)C(CC1)[C@]23C (some centres not stated)	inactive
COC(OC)c1ccc(C#N)c(=S)[nH]1	inactive
CCn1nc(C)cc1C(=O)Sc1cccc(Br)c1	inactive
NC(N)=Nc1ccc(Cl)cc1	inactive
CO[C@@H]1C[C@H](O[C@H]2CC[C@]3(C)C4CC[C@]5(C)[C@@H](C6=CC(=O)OC6)CC[C@]5(O)[C@@H]4CC[C@]3(O)C2)O[C@H](C)[C@@H]1O (some centres not stated)	inactive
FC(F)(F)Oc1ccc(OCc2n[nH]c(=S)n2-c2ccc(Cl)cc2)cc1	inactive
CCn1nc(C(=O)O)c(=O)c2cc3c(cc21)OCO3	inactive
CCn1nc(C)cc1C(=O)O	inactive
CCC(=O)O[C@]1(C(=O)CCl)[C@@H](C)CC2C3CCC4=CC(=O)C=C[C@]4(C)[C@@]3(F)[C@@H](O)C[C@@]21C (some centres not stated)	inactive
CN1/C(=C/C=C/c2ccc3ccccc3[n+]2C)C=Cc2ccccc21	active
